- Tested on: HEK-293T
- Test: Multiplex assay against HEK293T
- Type: toxicity, cell-based
- Run conditions: human, 24 h, 10 µM, compound concentration 10 uM, replicate 1
Here, each record is paired with measured Population Pyknosed Nuclei (%) data.

[
  {
    "Compound": "C=C1/C(=C\\C=C2/CCC[C@]3(C)[C@@H]([C@H](C)/C=C/[C@H](C)C(C)C)CC[C@@H]23)C[C@@H](O)C[C@@H]1O [DOXERCALCIFEROL]",
    "Tgt": "HEK-293T",
    "Population Pyknosed Nuclei (%)": 52
  },
  {
    "Compound": "O=C1NC(=O)C(c2cnc3ccccn23)=C1c1cn2c3c(cc(F)cc13)CN(C(=O)N1CCCCC1)CC2 [LY-2090314]",
    "Tgt": "HEK-293T",
    "Population Pyknosed Nuclei (%)": 52
  },
  {
    "Compound": "COC(=N)c1nc2ccc3ncnc(Nc4ccc(OC)cc4F)c3c2s1",
    "Tgt": "HEK-293T",
    "Population Pyknosed Nuclei (%)": 8
  },
  {
    "Compound": "Cl.O=c1c2cccn2c2ccccc2n1CCCN1CCC(c2ccc(Cl)cc2)CC1",
    "Tgt": "HEK-293T",
    "Population Pyknosed Nuclei (%)": 50
  },
  {
    "Compound": "Cn1nc(C(F)(F)F)cc1-c1cnc(N2CCc3cc(S(=O)(=O)Nc4c(F)cc(Cl)cc4F)cc(N4CCCC4=O)c32)nc1 [TP-020]",
    "Tgt": "HEK-293T",
    "Population Pyknosed Nuclei (%)": 10
  },
  {
    "Compound": "O=C(Nc1cccnn1)N1CCC(=Cc2cccc(Oc3ccc(C(F)(F)F)cn3)c2)CC1",
    "Tgt": "HEK-293T",
    "Population Pyknosed Nuclei (%)": 7
  },
  {
    "Compound": "CCOc1cc(C(=O)N2CCC(N3CCN(C)CC3)CC2)ccc1Nc1ncc2c(n1)N(C1CCCC1)c1ccccc1C(=O)N2C",
    "Tgt": "HEK-293T",
    "Population Pyknosed Nuclei (%)": 80
  },
  {
    "Compound": "COc1ccc(S(=O)(=O)N(CCO)c2ccccc2CN(C)C/C=C/c2ccc(Cl)cc2)cc1.O=P(O)(O)O",
    "Tgt": "HEK-293T",
    "Population Pyknosed Nuclei (%)": 11
  }
]
